The origin of these recorded values is patent US6887873B2.

- Tested on: A549 cells
- TEST DESCRIPTION: Cytotoxic activity on human tumour line A549, neutral red, 96 hours
- Assay type: cell-based
- RECORDED CONDITIONS: Homo sapiens, A549, A549; read-out: Cytotox. A549 IC50
- Description: The cytotoxic biological activity on human tumour lines is determined according to the following experimental protocol: The human cell lines A549 are obtained from ATCC (American Type Culture Collection, Rockville, USA). The A549 cells are cultured in a layer in a culture flask in RPMI 1640 medium containing L-glutamine at 2 mM, penicillin 200 U/ml, streptomycin 200 μg/ml and supplemented with 10% heat-inactivated foetal calf serum. […]
MEASURED PARAMETER: pIC50
The meaning of pIC50 here: minus log10 of the concentration in molar units.

Would you kindly share the measured pIC50 for `Cc1cc(N(C)C)c2cc(Nc3nc(Nc4ccc5nc(C)cc(N(C)C)c5c4)nc(N4CCCN(CCCN5CCCC5)CC4)n3)ccc2n1` ?
7.35

Would you kindly share the measured pIC50 for `Cc1cc(N(C)C)c2cc(Nc3nc(NCC[N+](C)(C)C)nc(Nc4ccc5nc(C)cc(N(C)C)c5c4)n3)ccc2n1` ?
5.81

Would you kindly share the measured pIC50 for `CCN(CCN(C)C)c1nc(Nc2ccc3nc(C)cc(N(C)C)c3c2)nc(Nc2ccc3nc(C)cc(N(C)C)c3c2)n1` ?
6.76
